- target of assay: Solute carrier organic anion transporter family member 1B1 (Homo sapiens, UniProt Q9Y6L6)
- Sequence (Q9Y6L6 whole entry): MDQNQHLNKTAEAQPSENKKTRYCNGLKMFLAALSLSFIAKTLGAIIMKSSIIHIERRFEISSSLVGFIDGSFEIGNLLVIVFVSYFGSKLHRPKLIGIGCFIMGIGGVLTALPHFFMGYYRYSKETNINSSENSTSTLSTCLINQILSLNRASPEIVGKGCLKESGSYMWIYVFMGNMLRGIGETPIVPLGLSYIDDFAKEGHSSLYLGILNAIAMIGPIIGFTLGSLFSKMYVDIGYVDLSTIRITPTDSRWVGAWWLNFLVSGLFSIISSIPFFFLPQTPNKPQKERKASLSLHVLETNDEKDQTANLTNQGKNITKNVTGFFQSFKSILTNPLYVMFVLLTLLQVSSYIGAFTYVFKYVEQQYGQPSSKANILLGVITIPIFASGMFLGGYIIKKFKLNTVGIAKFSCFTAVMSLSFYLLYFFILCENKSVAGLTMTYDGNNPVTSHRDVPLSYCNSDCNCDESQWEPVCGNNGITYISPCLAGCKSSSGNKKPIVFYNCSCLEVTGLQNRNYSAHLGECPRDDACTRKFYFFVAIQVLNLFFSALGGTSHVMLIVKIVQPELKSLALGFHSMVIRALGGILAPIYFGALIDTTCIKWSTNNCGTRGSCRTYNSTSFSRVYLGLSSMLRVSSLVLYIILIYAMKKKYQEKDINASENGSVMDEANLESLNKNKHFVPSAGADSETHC
- conditions: chinese hamster, cho, 10 µM
measurement name: residual activity (%)

| molecule | assay result |
| --- | --- |
| CC1(C)C2CC(=O)O[C@@]3(C)C4=CC(=O)O[C@@H](c5ccoc5)[C@]4(C)CCC3[C@@]2(C)C=C[C@H]1O (stereo partly drawn) [DEOXYANDIROBIN LACTONE] | 29.53 |
| CC(=O)N[C@@H](CC(=O)N[C@@H](CCC(=O)O)C(=O)O)C(=O)O [SPAGLUMIC ACID] | 87.3 |
| N=c1[nH]c(=O)c2[nH]c(=O)c(=O)[nH]c2[nH]1 [LEUCOPTERIN] | 136.6 |
| Oc1cc2c(cc1O)[C@@H]1c3ccc(O)c(O)c3OC[C@]1(O)C2 [HEMATOXYLIN] | 88.87 |
| O=c1cc(CO)occ1O [KOJIC ACID] | 79.88 |
| C[C@H](C[C@@H](O)[C@@H]1OC1(C)C)[C@@H]1CC[C@]2(C)C3=CC[C@H]4C(C)(C)C(=O)CC[C@]4(C)[C@H]3CC[C@@]12C [NILOTICIN] | 72.03 |
| C[C@@H]1CC[C@H]2[C@](C)(CO)[C@@H](O)CC[C@]2(C)[C@@]12CC[C@@](CO)(CCO)O2 [LAGOCHILINE] | 99.12 |
| Oc1c(Cl)cc(Cl)c(Cl)c1Cc1c(O)c(Cl)cc(Cl)c1Cl [HEXACHLOROPHENE] | 7.55 |

---

- target of assay: Solute carrier organic anion transporter family member 1B3 (Homo sapiens, UniProt Q9NPD5)
- Sequence (Q9NPD5 whole entry): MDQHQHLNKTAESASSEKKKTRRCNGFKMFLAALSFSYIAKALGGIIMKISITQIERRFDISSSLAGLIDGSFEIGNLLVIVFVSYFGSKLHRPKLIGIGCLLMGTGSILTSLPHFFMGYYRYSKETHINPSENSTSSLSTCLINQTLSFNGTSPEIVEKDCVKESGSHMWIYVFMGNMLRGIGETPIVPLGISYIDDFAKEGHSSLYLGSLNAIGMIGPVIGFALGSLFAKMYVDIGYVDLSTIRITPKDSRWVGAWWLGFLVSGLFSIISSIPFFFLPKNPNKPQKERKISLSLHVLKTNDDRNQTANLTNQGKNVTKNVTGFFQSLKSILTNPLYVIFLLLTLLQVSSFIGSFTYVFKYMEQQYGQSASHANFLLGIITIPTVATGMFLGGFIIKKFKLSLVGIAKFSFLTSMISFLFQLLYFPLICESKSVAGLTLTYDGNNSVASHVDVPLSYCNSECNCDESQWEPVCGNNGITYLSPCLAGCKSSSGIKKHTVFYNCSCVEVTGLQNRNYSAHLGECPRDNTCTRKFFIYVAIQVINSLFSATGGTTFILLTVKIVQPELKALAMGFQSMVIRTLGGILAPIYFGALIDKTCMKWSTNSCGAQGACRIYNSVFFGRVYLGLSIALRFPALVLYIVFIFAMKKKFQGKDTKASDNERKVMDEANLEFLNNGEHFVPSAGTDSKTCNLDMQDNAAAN
- conditions: chinese hamster, cho, 10 µM
# maps each entry to its residual activity
measurement name: residual activity (%)

| compound | target of assay | assay result |
| --- | --- | --- |
| C[C@@H]1C[C@H]2[C@@H]3C[C@H](F)C4=CC(=O)C=C[C@]4(C)[C@@]3(F)[C@@H](O)C[C@]2(C)[C@@]1(O)C(=O)COC(=O)C(C)(C)C [FLUMETHASONE PIVALATE] | Solute carrier organic anion transporter family member 1B3 (Homo sapiens, UniProt Q9NPD5) | 107.9 |
| O=C(O)CCCCCCCC(=O)O | Solute carrier organic anion transporter family member 1B3 (Homo sapiens, UniProt Q9NPD5) | 107.2 |
| CC1CC(OC(=O)C(O)c2ccccc2)CC(C)(C)N1C.Cl (stereo not drawn) [EUCATROPINE HYDROCHLORIDE] | Solute carrier organic anion transporter family member 1B3 (Homo sapiens, UniProt Q9NPD5) | 107.8 |
| CC1=NCCc2c1[nH]c1cc(O)ccc21.Cl [HARMALOL HYDROCHLORIDE] | Solute carrier organic anion transporter family member 1B3 (Homo sapiens, UniProt Q9NPD5) | 106.1 |
| CCN(CC)C(=O)c1cccc(C)c1 [DIETHYLTOLUAMIDE] | Solute carrier organic anion transporter family member 1B3 (Homo sapiens, UniProt Q9NPD5) | 107.2 |
| CC1(C)C(C(Cl)Cl)C2(Cl)C(Cl)C(Cl)C1(Cl)C2(Cl)Cl (stereo not drawn) | Solute carrier organic anion transporter family member 1B3 (Homo sapiens, UniProt Q9NPD5) | 109.5 |
| CC(C)CCC[C@@H](C)[C@H]1CC[C@H]2[C@@H]3CC=C4CC(=O)CC[C@]4(C)[C@H]3CC[C@]12C | Solute carrier organic anion transporter family member 1B3 (Homo sapiens, UniProt Q9NPD5) | 103.5 |
| NC(=O)NC(=O)Cc1ccccc1 [PHENACEMIDE] | Solute carrier organic anion transporter family member 1B3 (Homo sapiens, UniProt Q9NPD5) | 104.7 |
| COc1c2c(cc3c1OCO3)CCN(C)C2 [HYDROCOTARNINE] | Solute carrier organic anion transporter family member 1B3 (Homo sapiens, UniProt Q9NPD5) | 98.91 |
| COc1cccc(OC)c1OCCNCC1COc2ccccc2O1.Cl (stereo not drawn) | Solute carrier organic anion transporter family member 1B3 (Homo sapiens, UniProt Q9NPD5) | 96.02 |
| C[C@@H]([C@H]1OC(C)(C)[C@@H](O)[C@H]1O)[C@@H]1CC[C@]2(C)C3=CC[C@H]4C(C)(C)C(=O)CC[C@]4(C)[C@H]3CC[C@@]12C | Solute carrier organic anion transporter family member 1B3 (Homo sapiens, UniProt Q9NPD5) | 98.76 |
| O=C([O-])CF.[Na+] [SODIUM FLUOROACETATE] | Solute carrier organic anion transporter family member 1B3 (Homo sapiens, UniProt Q9NPD5) | 104.2 |
| O=C([O-])c1ccccc1O.[Na+] [SODIUM SALICYLATE] | Solute carrier organic anion transporter family member 1B3 (Homo sapiens, UniProt Q9NPD5) | 80.83 |
| C[C@]12CC[C@@H]3c4ccc(OS(=O)(=O)[O-])cc4CC[C@H]3[C@@H]1CC[C@@H]2O.[Na+] | Solute carrier organic anion transporter family member 1B3 (Homo sapiens, UniProt Q9NPD5) | 95.65 |
| CC(=O)OCC(=O)[C@H]1CC[C@H]2[C@@H]3CCC4=CC(=O)CC[C@]4(C)[C@H]3CC[C@]12C [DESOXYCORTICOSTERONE ACETATE] | Solute carrier organic anion transporter family member 1B3 (Homo sapiens, UniProt Q9NPD5) | 88.97 |
| COC(=O)c1c(Cl)c(Cl)c(C(=O)OC)c(Cl)c1Cl | Solute carrier organic anion transporter family member 1B3 (Homo sapiens, UniProt Q9NPD5) | 106.6 |
| CC(=O)N[C@@H](CS)C(=O)O | Solute carrier organic anion transporter family member 1B3 (Homo sapiens, UniProt Q9NPD5) | 89.21 |
| O=c1cc(-c2cc(O)c(O)c(O)c2)oc2cc(O)cc(O)c12 | Solute carrier organic anion transporter family member 1B3 (Homo sapiens, UniProt Q9NPD5) | 127.6 |

---

- target of assay: Solute carrier organic anion transporter family member 1B1 (Homo sapiens, UniProt Q9Y6L6)
- conditions: chinese hamster, cho, 10 µM
# maps each entry to its residual activity

| compound | residual activity (%) |
| --- | --- |
| CC1=C(C(=O)O)N2C(=O)[C@@H](NC(=O)[C@H](N)c3ccc(O)cc3)[C@H]2SC1 [CEFADROXIL] | 88.52 |
| CCCCCCCCCCCCCCCCOP(=O)([O-])OCC[N+](C)(C)C [MILTEFOSINE] | 89.28 |
| COc1ccc(-c2c(O)c3c(OC)c4c(cc3oc2=O)OC(C)(C)C=C4)cc1 [ROBUSTIC ACID] | 96.44 |
| C=CCN1CC[C@]23c4c5ccc(O)c4O[C@H]2C(=O)CC[C@@]3(O)[C@H]1C5.Cl [NALOXONE HYDROCHLORIDE] | 111.5 |
| COc1ccc(OC)c(C(O)C(C)N)c1.Cl (centres undefined) [METHOXAMINE HYDROCHLORIDE] | 80.21 |
| COC(=O)c1c(C)cc(O)cc1O [METHYL ORSELLINATE] | 90.83 |
| O=C1O[C@H]([C@@H](O)CO)C(O)=C1O [ASCORBIC ACID] | 84.23 |
| CN1CC(=O)NC1=N [CREATININE] | 105.7 |
| O=C(O)c1cccnc1 [NIACIN] | 124.4 |

---

- target of assay: Solute carrier organic anion transporter family member 1B3 (Homo sapiens, UniProt Q9NPD5)
- conditions: chinese hamster, cho, 10 µM
# maps each entry to its residual activity

| compound | endpoint unit | residual activity |
| --- | --- | --- |
| COc1ccc2cc([C@H](C)CO)ccc2c1 [NAPROXOL] | % | 102.8 |
| COc1ccc2c(c1)OC[C@@H](Cc1ccc(OC)c(OC)c1)[C@H]2O [TETRAHYDROSAPPANONE A TRIMETHYL ETHER] | % | 134.3 |
| CCCCNc1ccc(C(=O)OCCN(C)C)cc1.Cl [TETRACAINE HYDROCHLORIDE] | % | 88.3 |
| CC(=O)O[C@H]1C[C@@H](OC(C)=O)C(C)(C)[C@@H]2CC(=O)[C@]3(C)[C@H](CC[C@@]4(C)[C@H](c5ccoc5)OC(=O)[C@H]5O[C@]543)[C@@]12C | % | 72.19 |
| O=C(CCCCCCCCCCCCC1CCCC1)Nc1ccc(S(=O)(=O)c2ccc(NC(=O)CCCCCCCCCCCCC3CCCC3)cc2)cc1 [CHAULMOSULFONE] | % | 75.08 |
| CN(C)CCC(c1ccccc1)c1ccccn1.O=C(O)/C=C\C(=O)O (configuration not stated) [PHENIRAMINE MALEATE] | % | 103.2 |
| Oc1ccc([C@H]2Oc3cc(O)cc(O)c3C[C@H]2O)cc1 [EPIAFZELECHIN (2R,3R)(-)] | % | 26.68 |
| COc1cccc(C=O)c1OC | % | 100.4 |
| CCCNC(=O)NS(=O)(=O)c1ccc(Cl)cc1 [CHLORPROPAMIDE] | % | 102.2 |
| CC(C)(O)[C@@H]1Cc2cc3ccc(=O)oc3cc2O1 [MARMESIN] | % | 103.9 |
| CC(Oc1ccccc1)C(=O)N[C@@H]1C(=O)N2[C@@H]1SC(C)(C)[C@@H]2C(=O)[O-].[K+] (some centres not stated) [PHENETHICILLIN POTASSIUM] | % | 90.72 |
| Clc1ccc(COC(Cn2ccnc2)c2ccc(Cl)cc2Cl)c(Cl)c1.O=[N+]([O-])O (configuration not stated) [MICONAZOLE NITRATE] | % | 119.9 |
| CCCCCc1c2c(cc(O)c1C(=O)O)OC(=O)c1c(cc(OC)cc1C(=O)CCCC)O2 [LOBARIC ACID] | % | 7.572 |
| COC(=O)c1c(OC)cc2c(c1C)Oc1c(Cl)c(OC(C)=O)c(Cl)c(C)c1C(=O)O2 [GANGLEOIDIN ACETATE] | % | 54.62 |
| COc1cc2c3cc1Oc1cc(ccc1O)CC1c4c(cc(OC)c(O)c4Oc4ccc(cc4)CC3N(C)CC2)CCN1C (configuration not stated) [BEBEERINE] | % | 74.29 |
| CC1(C)NC(=O)N(c2ccc([N+](=O)[O-])c(C(F)(F)F)c2)C1=O [NILUTAMIDE] | % | 97.83 |
| COc1ccc(C(C)=O)c(OC)c1 [PEONOL METHYL ETHER] | % | 99.54 |
| C[C@]12CCC3c4ccc(OC(=O)c5ccccc5)cc4CCC3C1CCC2=O (some centres not stated) [ESTRONE BENZOATE] | % | 95.01 |
| C#CCCCCCCCCCCCC(O)CC(O)COC(C)=O (configuration not stated) [AVOCADYNE ACETATE] | % | 109.9 |
| CCOC(=O)[C@H](CCc1ccccc1)N[C@@H](C)C(=O)N1Cc2ccccc2C[C@H]1C(=O)O.Cl [QUINAPRIL HYDROCHLORIDE] | % | 98.34 |
| COc1cc(C(=O)NCc2ccc(OCCN(C)C)cc2)cc(OC)c1OC.Cl [TRIMETHOBENZAMIDE HYDROCHLORIDE] | % | 140.2 |
| C[C@H](CCC(=O)O)[C@H]1CC[C@H]2[C@@H]3CC[C@@H]4C[C@H](O)CC[C@]4(C)[C@H]3CC[C@]12C [LITHOCHOLIC ACID] | % | 60.21 |
| COc1cc(OC)c2c(c1)O[C@H](c1ccc(OC)c(OC)c1)[C@@H](O)C2 | % | 103.7 |
| CC(=O)OCC(=O)[C@@]1(O)CC[C@H]2[C@@H]3CC[C@@H]4C[C@H](O)CC[C@]4(C)[C@H]3C(=O)C[C@@]21C | % | 80 |
| CC(=O)Oc1ccc(O)cc1 [4-ACETOXYPHENOL] | % | 116.4 |
| CN1CCC(=C2c3ccccc3Sc3ccccc32)CC1.O=C(O)/C=C\C(=O)O [PIMETHIXENE MALEATE] | % | 104.8 |
| COc1cc([S+](C)[O-])ccc1-c1nc2ncccc2[nH]1 (configuration not stated) [SULMAZOLE] | % | 116.5 |
| CC1(C)C[C@@H]2[C@H]1CC[C@]1(C)C[C@@]2(O)CC[C@H]1O | % | 87.7 |
| CCCc1nc(C(C)(C)O)c(C(=O)OCc2oc(=O)oc2C)n1Cc1ccc(-c2ccccc2-c2nnn[nH]2)cc1 [OLMESARTAN MEDOXOMIL] | % | 9.702 |
| COc1ccc(C(=O)c2ccc(O)cc2)c(O)c1O [2,3,4'-TRIHYDROXY-4-METHOXYBENZOPHENONE] | % | 112.1 |
| C#CC1(O)CC[C@H]2[C@@H]3CCC4=CC(=O)CC[C@@H]4[C@H]3CC[C@@]21CC (some centres not stated) [NORGESTREL] | % | 102.9 |
| Cc1occc(=O)c1/C=C/O [2-METHYL-3-HYDROXYETHYLENEPYRAN-4-ONE] | % | 107 |
